Parameter inhibition: see the listing below.
- TEST_SYSTEM: Ephrin type-A receptor 3 (Homo sapiens) (UniProt P29320);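 also: mean inhibition value reported from the GSK PKIS kinase profiling screen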
- Sequence (P29320 whole entry): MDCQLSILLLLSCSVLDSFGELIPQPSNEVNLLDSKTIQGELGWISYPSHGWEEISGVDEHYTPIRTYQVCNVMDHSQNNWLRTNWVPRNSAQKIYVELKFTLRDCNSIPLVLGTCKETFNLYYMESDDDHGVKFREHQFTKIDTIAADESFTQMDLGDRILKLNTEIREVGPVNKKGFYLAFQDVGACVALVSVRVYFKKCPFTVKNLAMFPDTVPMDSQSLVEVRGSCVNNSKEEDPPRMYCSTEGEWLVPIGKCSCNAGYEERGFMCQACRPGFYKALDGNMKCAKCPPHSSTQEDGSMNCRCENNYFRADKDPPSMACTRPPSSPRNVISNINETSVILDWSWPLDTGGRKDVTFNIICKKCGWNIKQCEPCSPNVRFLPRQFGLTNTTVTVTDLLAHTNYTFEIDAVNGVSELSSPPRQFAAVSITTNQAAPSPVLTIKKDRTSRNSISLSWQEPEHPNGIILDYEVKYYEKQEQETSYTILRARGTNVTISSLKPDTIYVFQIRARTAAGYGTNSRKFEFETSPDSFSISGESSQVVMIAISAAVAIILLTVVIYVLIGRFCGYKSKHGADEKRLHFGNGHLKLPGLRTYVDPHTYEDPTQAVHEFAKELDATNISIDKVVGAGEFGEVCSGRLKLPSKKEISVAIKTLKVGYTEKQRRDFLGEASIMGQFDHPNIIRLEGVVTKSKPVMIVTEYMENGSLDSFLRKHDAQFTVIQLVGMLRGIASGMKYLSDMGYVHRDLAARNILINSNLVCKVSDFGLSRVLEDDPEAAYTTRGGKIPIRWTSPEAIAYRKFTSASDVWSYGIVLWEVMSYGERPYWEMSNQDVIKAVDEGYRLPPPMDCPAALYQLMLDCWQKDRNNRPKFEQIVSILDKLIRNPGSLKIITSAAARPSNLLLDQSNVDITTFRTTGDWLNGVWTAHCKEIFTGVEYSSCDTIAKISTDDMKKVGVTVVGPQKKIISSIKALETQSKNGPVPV
- RUN_PARAMETERS: at 1 µM
Give the quantity in %, number only.

Worked cases, inhibition given:
Prompt line: Given the compound `Fc1cccc(COc2ccc(Nc3ncnc4sc(-c5ccco5)cc34)cc2Cl)c1` , what is its reported inhibition?
Response line: 4.97

Prompt line: Given the compound `CS(=O)(=O)CCNCc1coc(-c2ccc3ncnc(Nc4ccc(OCc5ccccc5)cc4)c3c2)c1` , what is its reported inhibition?
Response line: 5.01

Prompt line: Given the compound `c1ccc(-c2nc3n(c2-c2ccc4c(c2)OCO4)CCC3)nc1` , what is its reported inhibition?
Response line: 1.96

Prompt line: Given the compound `O=S(=O)(CCNCc1ccc(-c2ccc3ncnc(Nc4ccc(OCc5cccc(F)c5)c(Cl)c4)c3c2)o1)c1ccccc1` , what is its reported inhibition?
Response line: 6.18

More entries:
Prompt line: Given the compound `CC(C)(CO)CNC(=O)c1ccc2c(c1)/C(=N/Nc1ccc(S(N)(=O)=O)cc1)C(=O)N2` , what is its reported inhibition?
Response line: 1.81

---

- TEST_SYSTEM: CDK3/Cyclin E (Homo sapiens) (UniProt P24864+Q00526);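 also: each figure is a mean percent inhibition of the CDK3/cyclin E complex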
- Sequence (P24864 whole entry, looked up): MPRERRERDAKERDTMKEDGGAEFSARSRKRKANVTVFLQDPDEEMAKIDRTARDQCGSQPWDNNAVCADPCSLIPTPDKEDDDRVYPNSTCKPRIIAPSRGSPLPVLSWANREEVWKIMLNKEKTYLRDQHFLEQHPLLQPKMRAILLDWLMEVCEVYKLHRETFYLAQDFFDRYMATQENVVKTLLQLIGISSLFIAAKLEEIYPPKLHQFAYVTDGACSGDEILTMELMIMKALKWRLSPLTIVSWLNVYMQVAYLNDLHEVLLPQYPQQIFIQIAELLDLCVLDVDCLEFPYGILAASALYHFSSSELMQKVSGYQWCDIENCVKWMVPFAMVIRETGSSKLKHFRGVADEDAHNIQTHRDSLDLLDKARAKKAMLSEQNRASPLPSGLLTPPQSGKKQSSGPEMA
- Sequence (Q00526 whole entry, looked up): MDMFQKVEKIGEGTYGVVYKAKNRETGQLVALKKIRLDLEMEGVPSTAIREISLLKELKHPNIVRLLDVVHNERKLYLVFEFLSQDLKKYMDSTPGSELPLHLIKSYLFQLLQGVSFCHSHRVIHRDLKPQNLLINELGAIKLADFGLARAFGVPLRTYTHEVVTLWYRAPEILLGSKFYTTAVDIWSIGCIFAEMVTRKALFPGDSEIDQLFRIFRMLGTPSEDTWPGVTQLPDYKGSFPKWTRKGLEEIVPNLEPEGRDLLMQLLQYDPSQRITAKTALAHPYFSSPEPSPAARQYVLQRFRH
- RUN_PARAMETERS: at 1 µM
Parameter inhibition: see the listing below.
Give the quantity in %, number only.

Prompt line: Given the compound `COc1ccc2[nH]c3c4[nH]c5ccc(OC)cc5c4c4c(c3c2c1)C(=O)NC4=O` , what is its reported inhibition?
Response line: 6.02

Prompt line: Given the compound `[O-][S+]1CCN(Cc2ccc(-c3ccc4ncnc(Nc5ccc(OCc6cccc(F)c6)c(Cl)c5)c4c3)o2)CC1` , what is its reported inhibition?
Response line: -2.03

Prompt line: Given the compound `CN1CCC(n2cnc(-c3ccc(F)cc3)c2-c2ccnc(Nc3ccccc3)n2)CC1` , what is its reported inhibition?
Response line: -2.19

Prompt line: Given the compound `O=C(O[C@H]1CN[C@H](C#Cc2cc3ncnc(Nc4ccc(Cc5ccccc5)cc4)c3s2)C1)N1CCOCC1` , what is its reported inhibition?
Response line: -1.05

Prompt line: Given the compound `COC(=O)Nc1nc2ccc(S(=O)(=O)c3ccc(NC(=O)Nc4cc(C(F)(F)F)ccc4F)cc3)cc2[nH]1` , what is its reported inhibition?
Response line: -2.43

Prompt line: Given the compound `COc1cccc(-n2ncc3c(N/N=C/c4ccc(F)cc4)ncnc32)c1` , what is its reported inhibition?
Response line: 4.95

Prompt line: Given the compound `CCCN(CCS(C)(=O)=O)Cc1ccc(-c2ccc3ncnc(Nc4ccc(OCc5cccc(F)c5)c(Cl)c4)c3c2)o1` , what is its reported inhibition?
Response line: -1.26

Prompt line: Given the compound `COc1cc(N2CCN(C(C)C)CC2)ccc1Nc1nc(Nc2ccc(F)cc2C(N)=O)c2cc[nH]c2n1` , what is its reported inhibition?
Response line: 0.34

Turning to the following compound.
Prompt line: Given the compound `Cc1cccc2c1NC(=O)/C2=N\Nc1ccc(S(N)(=O)=O)cc1` , what is its reported inhibition?
Response line: 2.03

---

Parameter inhibition: see the listing below.
- TEST_SYSTEM: Fibroblast growth factor receptor 3 (Homo sapiens);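 also: values reported are mean percent inhibition of FGFR3 activity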
- RUN_PARAMETERS: at 1 µM
Give the quantity in %, number only.

Prompt line: Given the compound `COc1ccc(-c2nn3ncccc3c2-c2ccnc(Nc3ccc4c(c3)OCCO4)n2)cc1` , what is its reported inhibition?
Response line: 12.6

Prompt line: Given the compound `COC(=O)Nc1nc2ccc(S(=O)(=O)c3ccc(NC(=O)Nc4cc(C(F)(F)F)ccc4F)cc3)cc2[nH]1` , what is its reported inhibition?
Response line: 4.38

More entries:
Prompt line: Given the compound `Nc1nc(-c2cccc(Cl)c2)c(-c2ccc3ncccc3n2)s1` , what is its reported inhibition?
Response line: 8.26

Prompt line: Given the compound `CN1CCC(n2cnc(-c3ccc(F)cc3)c2-c2ccnc(N)n2)CC1` , what is its reported inhibition?
Response line: 4.31

Prompt line: Given the compound `CS(=O)(=O)CCNCc1ccc(-c2ccc3ncnc(Nc4ccc(OCc5ccccc5)c(C(F)(F)F)c4)c3c2)o1` , what is its reported inhibition?
Response line: 5.71

Prompt line: Given the compound `CCn1c(-c2nonc2N)nc2c(C#CC(C)(C)O)ncc(OC3CCNCC3)c21` , what is its reported inhibition?
Response line: 2.73

Prompt line: Given the compound `COc1cc2ncn(-c3cc(OCc4ccccc4C(F)(F)F)c(C(=O)N(C)C)s3)c2cc1OC` , what is its reported inhibition?
Response line: 8.98

Prompt line: Given the compound `FC(F)(F)c1cccc(-c2nn3ncccc3c2-c2ccnc(Nc3ccc4c(c3)OCCO4)n2)c1` , what is its reported inhibition?
Response line: 7.93

Prompt line: Given the compound `CNC(=O)c1cc(-c2ccc(F)cc2)cc(-c2ccc(S(=O)(=O)N3CCCC3)cc2)c1N` , what is its reported inhibition?
Response line: 3.99

Prompt line: Given the compound `CC(C)(CO)CNC(=O)c1ccc2c(c1)/C(=N/Nc1ccc(S(N)(=O)=O)cc1)C(=O)N2` , what is its reported inhibition?
Response line: 5.3

Prompt line: Given the compound `Fc1cccc(COc2ccc(Nc3ncnc4sc(-c5ccco5)cc34)cc2Cl)c1` , what is its reported inhibition?
Response line: 5.9

Prompt line: Given the compound `CCn1c(-c2nonc2N)nc2c(C#CC(C)(C)O)nc(OC[C@H](N)c3ccccc3)cc21` , what is its reported inhibition?
Response line: 3.32

Prompt line: Given the compound `CC(=O)Nc1cccc(C#Cc2cncnc2Nc2ccc(OCc3cccc(F)c3)c(Cl)c2)c1` , what is its reported inhibition?
Response line: 5.53

Prompt line: Given the compound `CCN1CCC(CC(=O)Nc2n[nH]c3nnc(-c4cccc(F)c4F)cc23)CC1` , what is its reported inhibition?
Response line: 1.89

Prompt line: Given the compound `Nc1nc(-c2ccc(F)cc2)c(-c2ccc3ncccc3n2)s1` , what is its reported inhibition?
Response line: 11.4

Prompt line: Given the compound `COc1ccc2c(-c3ccnc(Nc4cccc(OC(F)(F)F)c4)n3)cnn2n1` , what is its reported inhibition?
Response line: 6.19

Prompt line: Given the compound `CC(C)COC(=O)c1ccc2c(c1)/C(=C/Nc1ccc(S(N)(=O)=O)cc1)C(=O)N2` , what is its reported inhibition?
Response line: 10.8

Prompt line: Given the compound `COc1cc(N2CCN(C(C)C)CC2)ccc1Nc1nc(Nc2ccc(F)cc2C(N)=O)c2cc[nH]c2n1` , what is its reported inhibition?
Response line: 3.24
